Assay Overview: Solubility test of crystal form A in different solvents
Assay type: physicochemical
Test Parameters: aqueous with cosolvent or surfactant or cyclodextrin, thermodynamic from solid; solvent: Methanol-water (3:1)
Parameter: solubility

In: Need solubility of CCn1nnc(-c2ccc(OCCC(C)(C)CCN3CCN(c4ccnc(N)c4)S3(=O)=O)nc2)n1 , thanks.
Out: < 2070 µg/mL

###

Assay Overview: Solubility test of crystal form A in different solvents
Type: physicochemical
Test Parameters: organic solvent or mixture, thermodynamic from solid; solvent: ethanol
Parameter: solubility

In: Given the entry CCn1nnc(-c2ccc(OCCC(C)(C)CCN3CCN(c4ccnc(N)c4)S3(=O)=O)nc2)n1 , report its measured solubility.
Out: < 2090 µg/mL
